Provide the recorded IC50 for the entries that follow.
Test system: MCF7
Assay: Antiproliferative activity against human MCF7 cells
Type: functional, cell-based
Settings: Homo sapiens, MCF7; read-out: IC50
Record the value in nM, omitting the unit from your answer.

Reported IC50 for MCF7, given `COc1ccc(-c2sc3cc(OC)ccc3c2C(=O)c2ccc(OCCN3CCCCC3)cc2)cc1` ?
300

Form field - read-out: IC50; system: MCF7; submitted item: `Oc1ccc2c(Cc3ccc(OCCN4CCCCC4)cc3)c(C3CCCCC3)sc2c1`
10

GET /values?readout=IC50&system=MCF7&item= `CC(C)c1sc2cc(O)ccc2c1Cc1ccc(OCCN2CCCCC2)cc1`
100

Lab note: need IC50 with MCF7 for entry `CCc1sc2cc(O)ccc2c1Cc1ccc(OCCN2CCCCC2)cc1` , please look it up.
400

Recorded IC50 for `Cc1sc2cc(O)ccc2c1Cc1ccc(OCCN2CCCCC2)cc1` with MCF7, please?
600

Reported IC50 for MCF7, given `Cc1cc(-c2sc3cc(O)ccc3c2C(=O)c2ccc(OCCN3CCCCC3)cc2)ccc1O` ?
1

What is its IC50 for MCF7? Entry: `COc1ccc(-c2sc3cc(O)ccc3c2C(=O)c2ccc(OCCN3CCCCC3)cc2)cc1`
1000

API: value(readout= IC50, system= MCF7, query= `O=C(c1ccc(OCCN2CCCCC2)cc1)c1c(-c2ccc(O)cc2)sc2ccccc12` )
35

# value lookup — system MCF7, readout IC50, item `O=C(c1ccc(OCCN2CCCCC2)cc1)c1c(-c2ccc(O)c(F)c2)sc2cc(O)ccc12`
0.3

Record `Cc1cc2c(C(=O)c3ccc(OCCN4CCCCC4)cc3)c(-c3ccc(O)cc3)sc2c(C)c1O` : what is its IC50 with MCF7?
500

Given the entry `COc1ccc2c(C(=O)c3ccc(OCCN4CCCCC4)cc3)c([C@H]3CC[C@@H](O)CC3)sc2c1` , what IC50 was observed with MCF7?
100

Given the entry `Cc1cc(-c2sc3cc(O)ccc3c2C(=O)c2ccc(OCCN3CCCCC3)cc2)cc(C)c1O` , what IC50 was observed with MCF7?
100

Lab request: please report IC50 under test system MCF7 for `O=C(c1ccc(OCCN2CCCCC2)cc1)c1c(-c2ccc(O)cc2)sc2cc(O)c(F)cc12`
3

Short answer please: IC50, MCF7, entry `O=C(c1ccc(OCCN2CCCCC2)cc1)c1c(-c2ccc(O)cc2)sc2cc(O)c(O)cc12`
400

What IC50 appears in the records for this compound with MCF7? `O=C(c1ccc(OCCN2CCCCC2)cc1)c1c2ccc(O)cc2sc1[C@H]1CC[C@H](O)CC1`
0.5

Lab note: need IC50 with MCF7 for entry `COc1ccc2c(C(=O)c3ccc(OCCN4CCCCC4)cc3)c(-c3ccc(O)cc3)sc2c1` , please look it up.
250

// map `O=C(c1ccc(OCCN2CCCCC2)cc1)c1c(-c2ccc(O)c(Cl)c2)sc2cc(O)ccc12` to recorded IC50 (system: MCF7)
2.3

// lookup IC50 | system=MCF7 | key= `Oc1ccc2c(Cc3ccc(OCCN4CCCCC4)cc3)c(C3CCCC3)sc2c1`
10

Value wanted: IC50 (MCF7) of entry `Oc1ccc2c(Cc3ccc(OCCN4CCCCC4)cc3)c([C@H]3CC[C@H](O)CC3)sc2c1`
2

Which measured IC50 belongs to `O=C(c1ccc(OCCN2CCCCC2)cc1)c1c(-c2ccccc2)sc2ccccc12` , tested on MCF7?
300

====

VALUE TYPE: IC50 (nM)
Unit nM implied. Number only.

Short answer please: IC50, Estrogen receptor beta (Homo sapiens), entry `O=C(c1ccc(N2CCN(C(=O)c3ccc(Cl)cc3)CC2)cc1)c1c(-c2ccc(O)cc2)sc2cc(O)ccc12`
9.07

====

Target: UniProt P03372
Sequence (P03372 whole entry): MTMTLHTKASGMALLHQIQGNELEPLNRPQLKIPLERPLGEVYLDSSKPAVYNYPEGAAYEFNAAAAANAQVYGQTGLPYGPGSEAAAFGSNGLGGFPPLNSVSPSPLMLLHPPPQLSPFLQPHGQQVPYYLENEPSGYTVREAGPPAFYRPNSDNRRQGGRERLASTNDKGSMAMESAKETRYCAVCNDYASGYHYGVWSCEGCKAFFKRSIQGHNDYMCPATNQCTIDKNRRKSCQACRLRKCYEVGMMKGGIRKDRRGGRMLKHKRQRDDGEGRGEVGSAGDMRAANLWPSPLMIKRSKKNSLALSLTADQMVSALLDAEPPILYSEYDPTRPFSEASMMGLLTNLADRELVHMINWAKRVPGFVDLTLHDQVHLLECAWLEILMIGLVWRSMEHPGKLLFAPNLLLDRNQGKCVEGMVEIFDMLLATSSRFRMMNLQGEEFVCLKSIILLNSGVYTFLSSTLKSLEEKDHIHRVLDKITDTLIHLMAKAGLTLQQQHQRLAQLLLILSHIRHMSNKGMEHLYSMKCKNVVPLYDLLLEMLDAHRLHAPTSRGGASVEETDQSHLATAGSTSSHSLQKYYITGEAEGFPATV
VALUE TYPE: pIC50
The read-out pIC50 is expressed as -log10 of concentration in moles per litre.

I have this molecule here, `O=C(c1ccc(N2CCN(C(=O)c3ccc(Cl)cc3)CC2)cc1)c1c(-c2ccc(O)cc2)sc2cc(O)ccc12` , and I need its recorded pIC50.
9.66

====

Target: Estrogen receptor beta (Homo sapiens)
Sequence (Q92731 whole entry): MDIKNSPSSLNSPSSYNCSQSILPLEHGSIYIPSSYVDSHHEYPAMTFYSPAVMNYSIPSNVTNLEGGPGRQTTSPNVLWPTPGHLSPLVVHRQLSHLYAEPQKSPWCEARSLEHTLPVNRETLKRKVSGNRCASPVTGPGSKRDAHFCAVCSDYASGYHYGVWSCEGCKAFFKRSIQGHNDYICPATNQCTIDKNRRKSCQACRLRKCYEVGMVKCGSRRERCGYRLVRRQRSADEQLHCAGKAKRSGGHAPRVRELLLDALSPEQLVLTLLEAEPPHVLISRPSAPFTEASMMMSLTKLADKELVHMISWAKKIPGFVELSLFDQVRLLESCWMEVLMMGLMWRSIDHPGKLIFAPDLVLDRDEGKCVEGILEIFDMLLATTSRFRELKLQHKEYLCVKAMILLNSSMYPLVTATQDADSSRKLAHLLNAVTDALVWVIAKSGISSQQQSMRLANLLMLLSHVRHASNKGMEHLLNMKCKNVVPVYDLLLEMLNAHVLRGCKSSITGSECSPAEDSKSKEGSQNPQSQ
Experiment: Relative binding affinity to human ERbeta
VALUE TYPE: relative binding affinity (RBA)
Give the value as a plain number.

Returns the measured relative binding affinity (RBA) for the input compound. Input: `O=C(c1ccc(OCCN2CCCCC2)cc1)c1c(-c2ccccc2CCCF)sc2cc(O)ccc12`
30

Which relative binding affinity (RBA) is reported for this compound? `O=C(c1ccc(OCCN2CCCCC2)cc1)c1c(-c2ccccc2CCF)sc2cc(O)ccc12`
27

So what's the measured relative binding affinity (RBA) for this one? `C[C@]12CC[C@@H]3c4ccc(O)cc4CC[C@H]3[C@@H]1CC[C@@H]2O`
3.5

Returns the measured relative binding affinity (RBA) for the input compound. Input: `O=C(c1ccc(OCCN2CCCCC2)cc1)c1c(-c2ccc(O)cc2CCCF)sc2cc(O)ccc12`
24

Hey, just so you know, these numbers are from ChEMBL document CHEMBL2021840.
